The origin of these recorded values is the OligoGym collection.

molecular target: TMEM156; experiment: pooled miR-30 sensor sort-seq; sequence = guide strand; conditions: shRNA; further: reference of the scale not given here
observedProperty: sensor-assay potency score (higher = more potent)

sequenceData: TTTGTCTCTATGACTCTGCCAC
target: TMEM156
val: -0.207

sequenceData: TAGATTGCAAACACACTTCCAG
target: TMEM156
val: 0.703

sequenceData: TTTTATATCCATCTCCAGGTGC
target: TMEM156
val: -0.346

sequenceData: TTTGCTTTCACTTCCATTGATC
target: TMEM156
val: -0.423

###

biological target: CDC42BPB; assay: pooled miR-30 sensor sort-seq; sequence = guide strand; settings: shRNA
observedProperty: sensor-assay potency score (higher = more potent)

sequenceData: TTCGATTTCTTCATTTAGCTTT
val: 0.598

sequenceData: TTTGATTTTGGAAATCTCTTGC
val: 0.44

sequenceData: TAGAGCATCTCATACATGCAGA
val: -0.774

sequenceData: TTCTGAATCATGCACCTCCTTC
val: -0.418

sequenceData: TCATCTTCAAACATGATCCAAA
val: -0.68

###

Known sensor-assay potency score (higher = more potent) of a selection of sequences
biological target: CD86; experiment: pooled miR-30 sensor sort-seq; sequence = guide strand; conditions: shRNA
observedProperty: sensor-assay potency score (higher = more potent)

sequenceData: TTTATGTACACATTTTCTGTTA
val: -0.664
//
sequenceData: AACACTGTCAAATTTCTCTTTG
val: -0.375
//
sequenceData: TACTATTTCAGGTTGACTGAAG
val: -0.445

###

biological target: DUSP5; test: pooled miR-30 sensor sort-seq; sequence = guide strand; conditions: shRNA
observedProperty: sensor-assay potency score (higher = more potent)

sequenceData: TCTCACTCTCAATCTTCTCTTG
val: -0.536
--
sequenceData: TTCATAAGGTAAGCCATGCAGA
val: -0.386
--
sequenceData: TATTGCTTCTTGAAAGTGGGAG
val: 0.394
--
sequenceData: TAGTGTAGGTGGGTCGCGCAGG
val: -0.939
--
sequenceData: ATTCCGAGTAGAAAGTCTCATA
val: -1.1
--
sequenceData: TTTGAGGAAGTAGACCCGCGGG
val: -0.969
--
sequenceData: TTAAAAACAAAAATCACAGTTG
val: 0.309
--
sequenceData: TTGTAGTGTAGGTGGGTCGCGC
val: -0.607
--
sequenceData: TTGACGTTGAGCGAGCCGCGCA
val: -0.861

###

molecular target: PPIA; experiment: pooled miR-30 sensor sort-seq; sequence = guide strand; conditions: shRNA
observedProperty: sensor-assay potency score (higher = more potent)

sequenceData: AAACTTAACTCTGCAATCCAGC
val: -0.893
//
sequenceData: TACAGAAGGAATGATCTGGTGG
val: 0.317
//
sequenceData: TATTTCATAATCATAAACTTAA
val: -0.804
//
sequenceData: TTCTGCTGTCTTTGGGACCTTG
val: -0.756

###

molecular target: ZBTB5; test: pooled miR-30 sensor sort-seq; sequence = guide strand; details: shRNA
Below, each entry is listed with its recorded sensor-assay potency score (higher = more potent).
observedProperty: sensor-assay potency score (higher = more potent)

sequenceData: TTTTGCATCACTATACAGGGAT
val: 0.397

sequenceData: TACAATGACACAATCACAGAGC
val: 0.0287

sequenceData: TAGGTTATTTGTGACTTCCAAA
val: -1.29

sequenceData: TTACAAACTACTTTCTGACTGC
val: 0.686

sequenceData: TAATCTGTCGTCGAAAACGGTA
val: -0.933
